tested on: SN12C renal; test: NCI-60 one-dose screen, 48 h (100 = growth as untreated, 0 = no growth, -100 = all killed); details: 10 µM unless noted
This is part of a sample that, as a whole, favours compounds with a hit. Of some 83,000 tested, about 20% had one in any assay.
Decision: growth >= 80% yields true (1), all other cases yield false (0).

CCN(CC)CCCC(C)Nc1cc(O)cc2cccnc12 (stereo unspecified) : true (1)
Oc1cccc(CCc2ccc(Oc3cc(CCc4cccc(O)c4)cc(O)c3O)cc2)c1 : false (0)
CCCOC(=O)N[C@H]1CCc2c(Cl)c(OC)c(OC)c(OC)c2-c2ccc(SC)c(=O)cc21 : false (0)
C=C1C(=O)O[C@H]2[C@H]1CC/C(COC(=O)NCc1c[nH]c3ccc(F)cc13)=C\CC[C@@]1(C)O[C@@H]21 : false (0)
CC(C)=CCC[C@](C)(O)[C@H]1CC[C@]2(C)[C@@H]1CC[C@@H]1[C@@]3(C)C/C(=C/c4ccccc4)C(=O)C(C)(C)[C@@H]3CC[C@]12C : true (1)
C#CCNC(=O)[C@]1(C)CC[C@]2(C)CC[C@@H]3C(=CC[C@H]4[C@@]3(C)CC[C@H]3C(C)(C)C(=O)CC[C@]43C)[C@@H]2C1 : true (1)

Q. API: above_or_equal(metric=growth, cutoff=80%) for item "O=C(CSc1nc2ccccc2[nH]1)NCc1ccccc1"
A. true (1)

Q. Another compound to check: "O=C1NN(C(=O)c2ccccc2)C(c2ccc(Cl)c(Cl)c2)=C/C1=C\c1ccc([N+](=O)[O-])cc1"
A. true (1)

Q. And what about the compound "COc1cc(/C(C)=C(\c2ccc(Cl)cc2)c2ccc(OCCN(C)C)cc2)ccc1F" ?
A. false (0)

###

The entries below are paired with their reported growth.
test system: SW-620 colon; experiment: NCI-60 one-dose screen, 48 h (100 = growth as untreated, 0 = no growth, -100 = all killed); conditions: 10 µM unless noted
The panel holds about 83,000 compounds, 20% with a hit somewhere; the sample as a whole holds those more often.
Value expressed in %; do not type the unit.

O=C(Nc1ccccc1C(=O)N/N=C(\c1ccccc1)c1ccccn1)c1ccc(F)cc1 : 30.2
O=C(CNCCN1CCOCC1)N1c2cccc3cccc(c23)N(C(=O)CNCCN2CCOCC2)C1c1cn(-c2ccccc2)nc1-c1cccc([N+](=O)[O-])c1 : 83.2

Q. What value of measured growth is listed for "CCCCCN1C=C/C(=C\C(=O)N(C)c2ccc(OC(F)(F)F)cc2)c2ccccc21" ?
A. 98.1

Q. Ok, now COc1cc(C=O)ccc1OC1OC(COC(C)=O)C(OC(C)=O)C(OC(C)=O)C1OC(C)=O (centres undefined)
A. 99.7

###

tested on: UACC-257 melanoma; test: NCI-60 one-dose screen, 48 h; details: 10 µM unless noted
Compounds without any hit were thinned out: in the full panel of roughly 83,000, 20% have a hit. The source made the active and inactive calls. The calls were made as follows: active = growth percent below 10; inactive = the rest.
Permitted responses: True = active, False = inactive

Worked set:
CC(=O)[C@@H]1CC[C@]2(CO)CC[C@]3(C)[C@H](CC[C@@H]4[C@@]5(C)CCCNC(C)(C)[C@@H]5CC[C@]43C)[C@@H]12 : False
O=C1c2ccccc2C(=O)c2c([N+](=O)[O-])ccc(Cl)c21 : False
O=C(O)c1ccc(-c2nn(-c3ccc(C(F)(F)F)cc3)cc2CNc2ccc(Oc3ccccc3)cc2)cc1 : False

Q. I would be grateful if you could indicate the recorded call for "COc1cc(NCCCCCNC(C)(C)C)c2ncccc2c1" .
A. False

Q. What do we get for "Cc1cc2c(C(=O)NCC#N)cccc2n1-c1nc2c(c(NCc3ccccc3)n1)CCCC2" ?
A. True

Q. Now this one: "Cc1cccc(NC(=O)Nc2ccc(-n3cnc4cc(-c5ccc(O)cc5)ccc43)cc2)c1"
A. False

Q. How about "O=C(/C=C(O)/C=C/c1ccc(SC(F)(F)F)cc1)/C=C/c1ccc(SC(F)(F)F)cc1" ?
A. False

Q. What do we get for "NC1=NN=C(N)C1=Cc1cc2ccccc2n2nnnc12" ?
A. False

Q. And then "COc1cc(C2=C(c3cn(C)c4ccccc34)COC2=O)cc(OC)c1OC" , what is it?
A. False

Q. For "COc1ccc(C(=O)NNc2nc(Cl)nc(N3CCN(C(c4ccccc4)c4ccccc4)CC3)n2)cc1" then?
A. False

Q. Further, for "Cc1nn(-c2ccccc2)c(Cl)c1/C=C/C(=O)c1ccc(F)cc1" ?
A. False

Taken from PubChem BioAssay (NCI).
